Hello, the source for this data is ChEMBL document CHEMBL1125390, in case you need it.

Recorded pKi for the following compounds
# targetOrTestSystem: UniProt C3SWJ7
# Sequence (C3SWJ7 whole entry): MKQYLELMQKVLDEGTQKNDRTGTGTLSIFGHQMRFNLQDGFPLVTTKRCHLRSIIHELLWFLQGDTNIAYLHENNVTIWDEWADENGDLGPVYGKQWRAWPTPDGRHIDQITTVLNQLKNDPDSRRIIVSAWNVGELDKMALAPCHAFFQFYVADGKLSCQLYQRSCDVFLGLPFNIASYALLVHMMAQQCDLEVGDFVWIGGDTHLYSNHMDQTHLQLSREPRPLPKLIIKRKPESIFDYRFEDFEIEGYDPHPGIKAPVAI
Scale note: pKi = -log10(concentration in M).

Worked cases, answers included:
COc1ccc(S(=O)(=O)c2ccc(CN3CCCc4cc5c(cc43)nc(N)n5C)cc2)cc1 : 6.30
COc1ccc(S(=O)(=O)c2ccc(CN3CCCc4cc5nc(C)[nH]c5cc43)cc2)cc1 : 5.89

Now let's try a different one.
IN: Notebook: pull reported pKi for UniProt C3SWJ7, entry CNc1nc2cc3c(cc2[nH]1)N(Cc1ccc(S(=O)(=O)c2ccccc2)cc1)CCC3
OUT: 5.07
